List of pIC50 values.
biological target: GSK3β (Homo sapiens); assay: GSK3β ATP depletion assay; format: biochemical; conditions: read-out: GSK3b IC50
Sequence (P49841 whole entry, species assumed): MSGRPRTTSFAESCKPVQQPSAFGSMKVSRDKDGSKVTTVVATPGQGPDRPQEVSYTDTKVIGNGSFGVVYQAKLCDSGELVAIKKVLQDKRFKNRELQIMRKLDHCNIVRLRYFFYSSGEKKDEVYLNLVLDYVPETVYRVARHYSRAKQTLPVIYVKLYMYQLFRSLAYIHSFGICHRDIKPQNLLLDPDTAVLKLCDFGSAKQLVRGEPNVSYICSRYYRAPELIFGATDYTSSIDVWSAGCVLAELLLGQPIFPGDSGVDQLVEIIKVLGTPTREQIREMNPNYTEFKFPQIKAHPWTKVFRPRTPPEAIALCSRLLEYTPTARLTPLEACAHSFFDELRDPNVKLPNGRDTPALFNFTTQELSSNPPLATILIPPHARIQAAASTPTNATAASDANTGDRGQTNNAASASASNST
Bear in mind: pIC50 is minus log10 of a mol/L concentration; give just that figure.

COMPOUND: O=C(Nc1cnccc1[C@H]1OC[C@H](CO)O1)c1ccc(F)c(-c2c(F)cccc2F)n1
pIC50: 5.59

Enquiry: Quick one: pIC50 of `Nc1ncc(-c2ccccc2)nc1C(=O)Nc1cnccc1[C@H]1C[C@@H](O)[C@H](O)[C@@H](CCl)O1` ?
Return: 9.00

Enquiry: Quick one: pIC50 of `CC[C@@H]1O[C@H](c2ccncc2NC(=O)c2nc(-c3c(F)cccc3F)c(F)cc2N)C[C@H](O)[C@@]1(C)O` ?
Return: 5.57

Enquiry: Quick one: pIC50 of `CC(C)NC(=O)c1ccc(F)c(-c2ccc(N)c(C(=O)Nc3cnccc3[C@@H]3C[C@@H](O)[C@](C)(O)[C@@H](C)O3)n2)c1F` ?
Return: 6.04

Enquiry: Quick one: pIC50 of `CC(C)NC(=O)c1ccc(F)c(-c2cccc(C(=O)Nc3cnccc3[C@H]3C[C@@H](O)[C@](C)(O)[C@@H](C)O3)n2)c1` ?
Return: 5.45

Enquiry: Quick one: pIC50 of CC[C@]1(O)[C@H](O)C[C@H](c2ccncc2NC(=O)c2nc(-c3c(F)cccc3F)ncc2N)O[C@@H]1C [Example 16] ?
Return: 7.00

Enquiry: Quick one: pIC50 of C[C@@H]1O[C@H](c2ccncc2NC(=O)c2csc(-c3c(F)cccc3F)n2)[C@@H](F)[C@H](O)[C@@]1(C)O (stereo in doubt) ?
Return: 6.48
